biological target: Beta-adrenergic receptor kinase 1 (Homo sapiens); experiment: RNA aptamer-GRK2 binding blockers – biochemical, cherry pick 2, bead flow cytometry, confirmation (AID 504782); conditions: bead-bound GRK2, FAM-aptamer displacement; at 10 µM, active compounds read high;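 further: negative values mostly come from compounds that fluoresce themselves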
Some of the results follow. Calls of active or inactive are those of the source.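 How the source made its calls: active means inhibition of aptamer binding above 40%, about triple the noise seen with nonglowing compounds, on plates passing quality control; inactive means the rest.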

compound	inhibition of aptamer binding
O=C(NCCCN1CCCCCC1)c1ccc(N2CCCC2=O)cc1	-112% (inactive)
COc1cccc(OC)c1C(=O)Nc1ccc(Cc2ccncc2)cc1	-1.61% (inactive)
COc1cc([N+](=O)[O-])cc([N+](=O)[O-])c1NC(=O)N1CCOCC1	8.51% (inactive)
CCOCCc1c(O)nc(SCC(=O)NCc2ccco2)[nH]c1=O	-20.9% (inactive)
Cc1nnc(SCC(=O)N2c3ccccc3C(C)(c3ccc(Cl)cc3)CC2(C)C)s1 (centres undefined)	14.7% (inactive)
CCOc1ccc(OCC)c(NC(=O)CCS(=O)(=O)c2ccc(C)cc2)c1	-1.15% (inactive)
COc1ccc(Cl)cc1NC(=O)CCS(=O)(=O)c1cc2c(cc1C)NC(=O)CO2	-12.2% (inactive)
NC(=O)[C@H]1CC2(CC(c3cccc(NC(=O)[C@H]4CCC(=O)N4)c3)=NO2)CN1C(=O)c1ccccc1C(=O)c1ccccc1 (some centres undefined)	-25.8% (inactive)
Cc1ccc(S(=O)(=O)CC(=O)Nc2sc(C)c(C)c2C(N)=O)cc1	-39.3% (inactive)
O=C(C1CCCN(S(=O)(=O)c2ccc([N+](=O)[O-])cc2)C1)N1CCCCC1 (centres undefined)	-14.3% (inactive)
O=C(NC1C2CC3CC(C2)CC1C3)c1ccc(N2CCNCC2)c([N+](=O)[O-])c1 (centres undefined)	-5.52% (inactive)
CCC(C)(C(=O)NC1CCCCC1)N(C)C(=O)c1ccc2c(c1)OCO2 (centres undefined)	-12.4% (inactive)
CCc1nn(CCCN2CCN(c3cccc(Cl)c3)CC2)c(=O)n1CCOc1ccccc1	4.83% (inactive)

The origin of these recorded values is PubChem BioAssay AID504782.
